- Tested on: AD/CDR1 (AD1-8u- overexpressing wt Cdr1)
- ASSAY EXPLANATION: MIC, modified CLSI M27-A3 broth microdilution
- EXPERIMENTAL SETUP: Saccharomyces cerevisiae, read-out: MIC (drug susceptibility)
PROPERTY NAME: MIC (µg/mL)
The response must be a number in µg/mL with no trailing unit.

CHEMICAL STRUCTURE	MIC / µg/mL
C/C1=C/C(=O)O[C@@H]2C[C@@H](CC[C@H](C)/C=C\C=C\CC1)O[C@@](O)([C@@H]1CSC(=O)N1)C2	8

Record CC[C@@]1([C@@H]2O[C@@H]([C@H]3O[C@@](O)(CO)[C@H](C)C[C@@H]3C)C[C@@H]2C)CC[C@H]([C@]2(C)CC[C@]3(C[C@H](O)[C@@H](C)[C@@H]([C@@H](C)[C@@H](OC)[C@H](C)C(=O)O)O3)O2)O1 : what is its MIC with AD/CDR1 (AD1-8u- overexpressing wt Cdr1)?
128

Tell me reported MIC for CC[C@@H]([C@H](C)O)n1ncn(-c2ccc(N3CCN(c4ccc(OC[C@@H]5CO[C@@](Cn6cncn6)(c6ccc(F)cc6F)C5)cc4)CC3)cc2)c1=O , tested with AD/CDR1 (AD1-8u- overexpressing wt Cdr1).
32

Test system AD/CDR1 (AD1-8u- overexpressing wt Cdr1); read-out MIC; what value for CO[C@@H]1C[C@@H](C[C@H]2CC[C@H](C)[C@H]([C@@H](C)C(=O)O)O2)O[C@]2(O[C@](C)([C@H]3CC[C@@](C)([C@@H]4O[C@@H]([C@H]5O[C@@](O)(CO)[C@H](C)C[C@@H]5C)C[C@@H]4C)O3)C[C@H]2C)[C@@H]1C ?
128

Give MIC (AD/CDR1 (AD1-8u- overexpressing wt Cdr1)) of the following compound: CC/N=c1\cc2oc3cc(NCC)c(C)cc3c(-c3ccccc3C(=O)OCC)c-2cc1C
32

====

- TARGET OR SYSTEM: wt Cdr1 ATPase activity (Candida albicans, UniProt Q5ANA3)
- Sequence (Q5ANA3 whole entry): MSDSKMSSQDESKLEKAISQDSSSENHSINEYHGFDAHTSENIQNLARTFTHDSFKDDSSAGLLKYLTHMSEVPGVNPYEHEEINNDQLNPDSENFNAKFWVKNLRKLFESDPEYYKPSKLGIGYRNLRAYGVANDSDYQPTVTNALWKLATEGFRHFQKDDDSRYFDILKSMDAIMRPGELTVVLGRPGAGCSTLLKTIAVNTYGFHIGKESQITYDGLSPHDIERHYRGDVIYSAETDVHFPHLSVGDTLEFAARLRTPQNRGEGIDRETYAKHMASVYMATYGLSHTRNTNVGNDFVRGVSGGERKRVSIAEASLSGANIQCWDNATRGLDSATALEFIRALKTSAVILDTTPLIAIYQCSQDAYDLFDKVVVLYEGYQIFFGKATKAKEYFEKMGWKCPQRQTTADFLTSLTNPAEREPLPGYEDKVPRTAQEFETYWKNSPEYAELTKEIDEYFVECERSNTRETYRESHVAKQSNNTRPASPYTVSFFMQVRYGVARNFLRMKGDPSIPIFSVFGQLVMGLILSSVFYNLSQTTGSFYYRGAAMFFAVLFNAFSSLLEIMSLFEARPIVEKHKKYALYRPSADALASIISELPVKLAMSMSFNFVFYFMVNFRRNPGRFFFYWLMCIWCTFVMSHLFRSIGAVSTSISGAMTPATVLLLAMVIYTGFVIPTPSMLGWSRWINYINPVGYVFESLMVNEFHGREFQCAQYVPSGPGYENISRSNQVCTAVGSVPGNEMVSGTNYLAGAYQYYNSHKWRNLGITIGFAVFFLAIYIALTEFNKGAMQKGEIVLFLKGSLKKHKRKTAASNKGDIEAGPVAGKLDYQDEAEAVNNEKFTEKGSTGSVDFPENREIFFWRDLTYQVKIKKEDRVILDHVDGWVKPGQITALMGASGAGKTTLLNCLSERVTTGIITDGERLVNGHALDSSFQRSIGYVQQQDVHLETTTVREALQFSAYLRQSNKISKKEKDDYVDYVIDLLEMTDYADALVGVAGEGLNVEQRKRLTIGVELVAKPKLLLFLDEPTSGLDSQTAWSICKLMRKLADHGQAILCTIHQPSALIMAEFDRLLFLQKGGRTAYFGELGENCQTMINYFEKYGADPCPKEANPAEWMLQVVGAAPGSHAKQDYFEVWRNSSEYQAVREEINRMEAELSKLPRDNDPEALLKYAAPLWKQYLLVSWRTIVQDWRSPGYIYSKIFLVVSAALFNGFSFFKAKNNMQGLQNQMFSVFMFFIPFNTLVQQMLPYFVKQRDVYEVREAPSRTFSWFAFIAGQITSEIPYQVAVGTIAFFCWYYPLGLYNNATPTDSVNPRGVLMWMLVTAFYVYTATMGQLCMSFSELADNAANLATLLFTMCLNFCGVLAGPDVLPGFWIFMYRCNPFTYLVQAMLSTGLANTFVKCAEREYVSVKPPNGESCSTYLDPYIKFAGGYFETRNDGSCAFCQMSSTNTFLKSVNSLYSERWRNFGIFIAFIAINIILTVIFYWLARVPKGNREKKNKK
- ASSAY EXPLANATION: biochemical
PROPERTY NAME: Ki (nM)
Please give a number only; it is taken to be in nM.

Which Ki reading was recorded for the compound CC(C)[C@H]1C(=O)O[C@H](C(C)C)C(=O)N(C)[C@@H](C(C)C)C(=O)O[C@H](C(C)C)C(=O)N(C)[C@@H](C(C)C)C(=O)O[C@H](C(C)C)C(=O)N1C [Enniatin B, enniatin B] ?
200

====

# MIC values compiled below
- Tested on: AD/CDR1 (AD1-8u- overexpressing wt Cdr1)
- ASSAY EXPLANATION: MIC, modified CLSI M27-A3 broth microdilution
- EXPERIMENTAL SETUP: Saccharomyces cerevisiae, read-out: MIC (drug susceptibility)
The reply should be a number in µg/mL, with the unit left off.

Some compounds with recorded MIC:
> print(dat)
                                   compound  number
1  C[C@@H]1C[C@@H]([C@H](O)CC2CC(=O)NC(=O)C2)C(=O)[C@@H](C)C1 [CHX, cycloheximide]       2
2    C/C=C/C/C=C/CCC(=O)[C@H]1O[C@H]1C(N)=O       8
3  Clc1ccc(COC(Cn2ccnc2)c2ccc(Cl)cc2Cl)c(Cl)c1 (centres unmarked)       8
4  CC(=O)N1CCN(c2ccc(OCC3COC(Cn4ccnc4)(c4ccc(Cl)cc4Cl)O3)cc2)CC1 (centres unmarked)       8
5  CCC(C)n1ncn(-c2ccc(N3CCN(c4ccc(OCC5COC(Cn6cncn6)(c6ccc(Cl)cc6Cl)O5)cc4)CC3)cc2)c1=O (centres unmarked)      32

# get_value(readout='MIC', item= C[C@@H](c1ncncc1F)[C@](O)(Cn1cncn1)c1ccc(F)cc1F )
8

Report MIC for OC(Cn1cncn1)(Cn1cncn1)c1ccc(F)cc1F please.
640

# get_value(readout='MIC', item= Clc1ccccc1C(c1ccccc1)(c1ccccc1)n1ccnc1 )
8

====

Below: a set of entries, each annotated with reported IC50.
- TARGET OR SYSTEM: wt Cdr1 ATPase activity (Candida albicans, UniProt Q5ANA3)
- ASSAY EXPLANATION: biochemical
- EXPERIMENTAL SETUP: CDR1 (wt); > = only partial inhibition; none = no reduction at highest concentration; read-out: Estimated IC50 for substrate inhibition of the ATPase activity
Answer with a number only, understood to be in µM.

MOLECULE	IC50 (µM)
CC(=O)N1CCN(c2ccc(OCC3COC(Cn4ccnc4)(c4ccc(Cl)cc4Cl)O3)cc2)CC1 (centres unmarked)	13

Which value of IC50 has been reported for CC/N=c1\cc2oc3cc(NCC)c(C)cc3c(-c3ccccc3C(=O)OCC)c-2cc1C in the records?
32

====

- Test system: AD/pABC3 (empty vector control, sensitive strain)
- ASSAY EXPLANATION: microbe, parasite or virus in culture
- EXPERIMENTAL SETUP: Saccharomyces cerevisiae, read-out: MIC (drug susceptibility)
PROPERTY NAME: MIC (mg/L)
Enter your answer as a number in mg/L; do not include the unit.

The cases that follow already have their MIC on record.
> print(dat)
                                   compound  unit.text  number
1  C/C1=C/C(=O)O[C@@H]2C[C@@H](CC[C@H](C)/C=C\C=C\CC1)O[C@@](O)([C@@H]1CSC(=O)N1)C2       mg/L   0.016
2  C[C@@H]1C[C@@H]([C@H](O)CC2CC(=O)NC(=O)C2)C(=O)[C@@H](C)C1 [CHX, cycloheximide]       mg/L   0.016
3        OC(Cn1cncn1)(Cn1cncn1)c1ccc(F)cc1F       mg/L    1.25
4    Clc1ccccc1C(c1ccccc1)(c1ccccc1)n1ccnc1       mg/L   0.002
5  Clc1ccc(COC(Cn2ccnc2)c2ccc(Cl)cc2Cl)c(Cl)c1 (stereo not drawn)       mg/L   0.008

Consider the compound shown here: CC(=O)N1CCN(c2ccc(OCC3COC(Cn4ccnc4)(c4ccc(Cl)cc4Cl)O3)cc2)CC1 (stereo not drawn) What is its recorded MIC?
0.008

====

- TARGET OR SYSTEM: UniProt Q5ANA3
- ASSAY EXPLANATION: biochemical
- EXPERIMENTAL SETUP: CDR1 (wt); from Fig. 4; read-out: IC50 for inhibition of Cdr1 ATPase activity
Catalogue of pIC50 values
When answering, recall that pIC50 equals minus log10 of the concentration in mol/L, and write that number alone.

MOLECULE	TARGET OR SYSTEM	NUMBER
[O]=[V]([O-])([O-])[O-] [Vanadate, vanadate]	UniProt Q5ANA3	5.92

Please examine the following record next.
Please look up its pIC50: C=CC[C@@H]1/C=C(\C)C[C@H](C)C[C@H](OC)[C@H]2O[C@@](O)(C(=O)C(=O)N3CCCC[C@H]3C(=O)O[C@H](/C(C)=C/[C@@H]3CC[C@@H](O)[C@H](OC)C3)[C@H](C)[C@@H](O)CC1=O)[C@H](C)C[C@@H]2OC
5.90

====

- TARGET OR SYSTEM: wt Cdr1 ATPase activity (Candida albicans, UniProt Q5ANA3)
- ASSAY EXPLANATION: biochemical
PROPERTY NAME: IC50 (nM)
Write it as a number; the unit nM goes unstated.

Which IC50 is listed for CC(C)[C@H]1C(=O)O[C@H](C(C)C)C(=O)N(C)[C@@H](C(C)C)C(=O)O[C@H](C(C)C)C(=O)N(C)[C@@H](C(C)C)C(=O)O[C@H](C(C)C)C(=O)N1C [Enniatin B, enniatin B] ?
180

====

Listed here are compounds together with their documented MIC.
- System: AD/pABC3 (empty vector control, sensitive strain)
- ASSAY EXPLANATION: microbe, parasite or virus in culture
- EXPERIMENTAL SETUP: Saccharomyces cerevisiae, read-out: MIC (drug susceptibility), strain AD/pABC3
Your answer is read as mg/L, so omit the unit and give the number.

Find the recorded MIC belonging to CC[C@@H]([C@H](C)O)n1ncn(-c2ccc(N3CCN(c4ccc(OC[C@@H]5CO[C@@](Cn6cncn6)(c6ccc(F)cc6F)C5)cc4)CC3)cc2)c1=O and report it.
0.016

====

- TARGET OR SYSTEM: wt Cdr1 ATPase activity (Candida albicans)
- ASSAY EXPLANATION: biochemical
- EXPERIMENTAL SETUP: CDR1; [I] 0.5 μM
PROPERTY NAME: Vmax of ATPase activity in the presence of inhibitor (nmol/min/mg)
Quick note: give the figure in nmol/min/mg, leave out the unit.

COMPOUND	UNIT TEXT	NUMBER
C=CC[C@@H]1/C=C(\C)C[C@H](C)C[C@H](OC)[C@H]2O[C@@](O)(C(=O)C(=O)N3CCCC[C@H]3C(=O)O[C@H](/C(C)=C/[C@@H]3CC[C@@H](O)[C@H](OC)C3)[C@H](C)[C@@H](O)CC1=O)[C@H](C)C[C@@H]2OC	nmol/min/mg	233

What value of measured Vmax of ATPase activity in the presence of inhibitor is listed for [O]=[V]([O-])([O-])[O-] [Vanadate, vanadate] ?
161

Quick one: Vmax of ATPase activity in the presence of inhibitor for CC[C@H]1/C=C/C=C/C[C@@H](C)[C@H](O)[C@@](C)(O)C(=O)[C@@H](C)[C@H](O)[C@@H](C)C(=O)[C@@H](C)[C@H](O)[C@@H](C)/C=C/C(=O)O[C@@H]2[C@H](C)[C@H](CC1)O[C@]1(CC[C@H](C)[C@H](C[C@@H](C)O)O1)[C@H]2C ?
185

I am curious: what Vmax of ATPase activity in the presence of inhibitor value has been reported for CC(C)[C@H]1C(=O)O[C@H](C(C)C)C(=O)N(C)[C@@H](C(C)C)C(=O)O[C@H](C(C)C)C(=O)N(C)[C@@H](C(C)C)C(=O)O[C@H](C(C)C)C(=O)N1C ?
98
